MEASURED_TARGET: A3B-CTD E255A (inactive, 'WT') (Homo sapiens, UniProt Q9UH17 187-382, E255A)
Sequence (Q9UH17 187-382 E255A): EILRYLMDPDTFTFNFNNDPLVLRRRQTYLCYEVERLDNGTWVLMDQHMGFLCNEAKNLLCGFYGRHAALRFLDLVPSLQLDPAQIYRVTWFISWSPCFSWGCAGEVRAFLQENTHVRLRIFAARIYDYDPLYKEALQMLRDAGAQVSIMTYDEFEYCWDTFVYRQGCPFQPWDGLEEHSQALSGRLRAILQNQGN
METHOD: fluorescence anisotropy
ENDPOINT_NAME: Kd
# do not omit the unit; it follows the number

Q: Need Kd of AAAAAAAATCGAAAA (ssDNA) [polyA TCG (linear DNA)] , thanks.
Ans: 5.4 µM

Q: How about GCCATCATTCGATGGG (structured_DNA) [DNA hairpin] ?
Ans: 2 µM
